Hello, the source for this data is patent US12624096B2, in case you need it.

Target: htau40 (Homo sapiens, UniProt P10636)
Sequence (P10636 1-441 isoform P10636-8): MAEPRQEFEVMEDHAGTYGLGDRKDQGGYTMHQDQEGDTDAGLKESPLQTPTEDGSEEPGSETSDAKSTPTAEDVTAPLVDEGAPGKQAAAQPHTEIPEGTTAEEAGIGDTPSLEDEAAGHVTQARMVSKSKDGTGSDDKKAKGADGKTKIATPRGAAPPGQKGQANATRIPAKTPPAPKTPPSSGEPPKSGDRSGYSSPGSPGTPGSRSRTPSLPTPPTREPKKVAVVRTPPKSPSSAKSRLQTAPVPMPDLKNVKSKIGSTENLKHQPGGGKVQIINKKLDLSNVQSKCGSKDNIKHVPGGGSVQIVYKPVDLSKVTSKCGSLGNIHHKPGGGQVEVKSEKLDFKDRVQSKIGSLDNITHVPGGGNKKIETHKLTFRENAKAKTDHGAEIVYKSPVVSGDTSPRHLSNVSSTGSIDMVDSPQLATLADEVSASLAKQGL
Assay: Biacore X100 SPR of anti-tau mAbs on immobilised htau40
Assay type: binding
Details: mAb, Table 27, immobilised hT40

{"columns": ["molecule", "ka"],
 "data": [
  ["CE3: anti-tau clone, SEQ ID NO: 367 (protein, CE3 amino acid sequence) scFv: QVRLQESGPSLVKPSQTLSVTCTVSGFSLISNAVGWVRQAPGKVPESLAGCSSDGKCYYNSALKSRLDITRDTSKNQISLSLSSVTTDDAAVYYCTRGYYPVYGYDYLGTIDYWGPGLLVTVSSEGKSSGASGESKVDDQAVLTQPSSVSGSLGQRVSITCSGSSSNVGRNDVAWFQQLPGSGLRTIIYGTTSRPSGIPDRFSGSKSGVTATLTIDSLQAEDEADYFCASGDSSAINDIFGSGTRLTVLG", "103000 M⁻¹ s⁻¹"]
]}
